Values from ChEMBL document CHEMBL5131499

I'd be grateful if you could share measured pIC50 for these entries.
- EXPERIMENT_DESCRIPTION: Inhibition of bovine liver beta-glucosidase assessed as release of p-nitrophenol using p-nitrophenyl glycoside as substrate by spectrometric assay
- Set-up: species or system Bos taurus
The meaning of pIC50 here: minus log10 of the concentration in molar units.

Entry CCCCCCCCC[C@@]1(CO)NC[C@H](O)[C@H]1O : reported pIC50 = ? 3.37

# pIC50 lookup, item OC[C@]1(c2ccccc2)NC[C@H](O)[C@H]1O 4.15

Endpoint output: pIC50 of CCCC[C@@]1(CO)NC[C@H](O)[C@H]1O . Value? 3.65

Which value of pIC50 has been reported for OC[C@H]1NC[C@@H](O)[C@@H]1O in the records? 3.20

Dear colleague, I am looking for the recorded pIC50 of the following compound: C[C@@]1(CO)NC[C@H](O)[C@H]1O 3.74

###

Please go through the items and note down their inhibition.
- System: Escherichia coli
- EXPERIMENT_DESCRIPTION: Inhibition of Escherichia coli beta-glucuronidase assessed as release of p-nitrophenol at 1000 uM using p-nitrophenyl glycoside as substrate by spectrometric assay relative to control
Just the number in %, nothing appended.

// query inhibition value for entry OC[C@@]1(c2cccc(F)c2)NC[C@@H](O)[C@@H]1O 0

Given OC[C@@]1(c2c(F)c(F)c(F)c(F)c2F)NC[C@@H](O)[C@@H]1O , state its recorded inhibition. 0

Any idea what its inhibition is? The molecule is Cc1ccc([C@]2(CO)NC[C@@H](O)[C@@H]2O)cc1 0

Suppose we examine the molecule OC[C@@]1(c2ccc(F)cc2)NC[C@@H](O)[C@@H]1O ; what inhibition value has been reported? 1.5

Requested read-out: inhibition. Entry: OC[C@@]1(c2ccc(O)cc2)NC[C@@H](O)[C@@H]1O 0.4

Dear colleague, I am looking for the recorded inhibition of the following molecule: COc1cccc([C@]2(CO)NC[C@@H](O)[C@@H]2O)c1 0

What inhibition value was documented for this molecule, COc1ccc([C@@]2(CO)NC[C@H](O)[C@H]2O)cc1OC ? 0

What value of measured inhibition is listed for OC[C@]1(c2cccc(F)c2)NC[C@H](O)[C@H]1O ? 0

Query: inhibition; subject: COc1ccc([C@]2(CO)NC[C@@H](O)[C@@H]2O)cc1 25

For the molecule C[C@]1(CO)NC[C@@H](O)[C@@H]1O , what inhibition is on record? 4.8

Please report the recorded inhibition for OC[C@]1(c2ccc(O)cc2)NC[C@H](O)[C@H]1O . 1.8

What does the data say about its inhibition? Entry: COc1cccc([C@@]2(CO)NC[C@H](O)[C@H]2O)c1 0

What value of inhibition has been recorded for this entry: COc1ccc([C@]2(CO)NC[C@@H](O)[C@@H]2O)cc1OC 0

Which inhibition value is on record for OC[C@]1(c2c(F)c(F)c(F)c(F)c2F)NC[C@H](O)[C@H]1O ? 2.6

Return reported inhibition; argument: Cc1ccc([C@@]2(CO)NC[C@H](O)[C@H]2O)cc1 0

// lookup inhibition for OC[C@@]1(c2ccccc2)NC[C@@H](O)[C@@H]1O 7.3

Given OC[C@]1(c2ccc(F)cc2)NC[C@H](O)[C@H]1O , state its recorded inhibition. 3

Any idea what its inhibition is? The molecule is CCCCCCCCC[C@]1(CO)NC[C@@H](O)[C@@H]1O 31.6

###

- Tested on: Penicillium decumbens
- EXPERIMENT_DESCRIPTION: Inhibition of Penicillium decumbens alpha-L-rhamnosidase assessed as release of p-nitrophenol at 1000 uM using p-nitrophenyl glycoside as substrate by spectrometric assay relative to control
Would you mind labelling by inhibition? At or over 6% is true, under is false.

Has CCCC[C@]1(CO)NC[C@@H](O)[C@@H]1O a recorded inhibition greater than or equal to 6%? true

Determine whether this compound has inhibition no lower than 6%: OC[C@@]1(c2ccc(F)cc2)NC[C@@H](O)[C@@H]1O false

Tell me whether inhibition is at least 6% here: C[C@]1(CO)NC[C@@H](O)[C@@H]1O true

Reported inhibition at or above 6%? Cc1ccc([C@@]2(CO)NC[C@H](O)[C@H]2O)cc1 true

Assess whether reported inhibition for COc1cccc([C@@]2(CO)NC[C@H](O)[C@H]2O)c1 sits at 6% or higher. false

Please check the record CCCCCCCCC[C@]1(CO)NC[C@@H](O)[C@@H]1O and state if its inhibition is at or above 6%. false

Has COc1cccc([C@]2(CO)NC[C@@H](O)[C@@H]2O)c1 a recorded inhibition greater than or equal to 6%? false

Would you say OC[C@]1(c2cccc(F)c2)NC[C@H](O)[C@H]1O shows inhibition at minimum 6%? false

###

- TARGET_ENTITY: Alpha-galactosidase (Coffea arabica) (UniProt Q42656)
- Sequence (Q42656 16-378 limits assumed): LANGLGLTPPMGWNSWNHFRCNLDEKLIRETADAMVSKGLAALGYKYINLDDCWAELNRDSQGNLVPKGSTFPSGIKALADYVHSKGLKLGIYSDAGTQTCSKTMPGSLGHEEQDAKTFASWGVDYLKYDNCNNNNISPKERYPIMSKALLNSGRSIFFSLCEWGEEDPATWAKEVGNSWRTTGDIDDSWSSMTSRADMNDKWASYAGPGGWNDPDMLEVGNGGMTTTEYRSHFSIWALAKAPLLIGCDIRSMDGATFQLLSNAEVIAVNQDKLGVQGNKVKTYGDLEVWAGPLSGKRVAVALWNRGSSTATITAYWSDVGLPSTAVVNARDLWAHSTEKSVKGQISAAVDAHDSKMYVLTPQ
- EXPERIMENT_DESCRIPTION: Inhibition of coffee beans alpha-galactosidase assessed as release of p-nitrophenol at 1000 uM using p-nitrophenyl glycoside as substrate by spectrometric assay relative to control
Would you kindly list inhibition for each of these compounds?

Hi! What's the reported inhibition for COc1ccc([C@@]2(CO)NC[C@H](O)[C@H]2O)cc1OC on Alpha-galactosidase (Coffea arabica) (UniProt Q42656)? 0%

Write down the reported inhibition of CCCCCCCCC[C@]1(CO)NC[C@@H](O)[C@@H]1O , test system: Alpha-galactosidase (Coffea arabica) (UniProt Q42656). 2.5%

Hello, I am looking for reported inhibition with Alpha-galactosidase (Coffea arabica) (UniProt Q42656) for COc1ccc([C@]2(CO)NC[C@@H](O)[C@@H]2O)cc1OC . Could you help? 0%

Report inhibition for OC[C@@]1(c2ccc(O)cc2)NC[C@@H](O)[C@@H]1O tested on Alpha-galactosidase (Coffea arabica) (UniProt Q42656). 1.2%

Give inhibition (Alpha-galactosidase (Coffea arabica) (UniProt Q42656)) of the following compound: COc1cccc([C@]2(CO)NC[C@@H](O)[C@@H]2O)c1 1.6%

###

For each entry below, report its inhibition value.
- Organism: Bos taurus
- EXPERIMENT_DESCRIPTION: Inhibition of bovine liver beta-glucronidase assessed as release of p-nitrophenol at 1000 uM using p-nitrophenyl glycoside as substrate by spectrometric assay relative to control
Field format: number, assumed %, no unit text.

Requested field: inhibition. Item: COc1ccc([C@@]2(CO)NC[C@H](O)[C@H]2O)cc1OC 23.3

Fill in: inhibition of OC[C@@]1(c2ccc(F)cc2)NC[C@@H](O)[C@@H]1O is ___ 16.8

Recorded inhibition for Cc1ccc([C@@]2(CO)NC[C@H](O)[C@H]2O)cc1 , please? 8.7

// returns reported inhibition for input OC[C@@]1(c2c(F)c(F)c(F)c(F)c2F)NC[C@@H](O)[C@@H]1O 18.4

Need inhibition, item COc1ccc([C@]2(CO)NC[C@@H](O)[C@@H]2O)cc1 5.9

What does the data say about its inhibition? Entry: Cc1ccc([C@]2(CO)NC[C@@H](O)[C@@H]2O)cc1 8.7

Give its inhibition value. Item: COc1ccc([C@]2(CO)NC[C@@H](O)[C@@H]2O)cc1OC 17.5

Name the reported inhibition value associated with the compound CCCCCCCCC[C@]1(CO)NC[C@@H](O)[C@@H]1O 4.6

Look up inhibition: OC[C@]1(c2cccc(F)c2)NC[C@H](O)[C@H]1O 19.4

I have this compound here, COc1cccc([C@]2(CO)NC[C@@H](O)[C@@H]2O)c1 , and I need its recorded inhibition. 10.7

Given the compound OC[C@]1(c2ccc(O)cc2)NC[C@H](O)[C@H]1O , what is its reported inhibition? 12.6

###

Provide the reported inhibition of each item.
- System: Oryza sativa
- EXPERIMENT_DESCRIPTION: Inhibition of rice alpha-glucosidase assessed as release of p-nitrophenol at 1000 uM using p-nitrophenyl glycoside as substrate by spectrometric assay relative to control
Give just the number in %; leave the unit off.

I would be grateful if you could share the reported inhibition for COc1cccc([C@@]2(CO)NC[C@H](O)[C@H]2O)c1 . 47.3

Sample OC[C@@]1(c2c(F)c(F)c(F)c(F)c2F)NC[C@@H](O)[C@@H]1O — what was its inhibition? 19.5

Recorded inhibition of COc1ccc([C@@]2(CO)NC[C@H](O)[C@H]2O)cc1OC , please. 32.3

Quick one: inhibition for Cc1ccc([C@]2(CO)NC[C@@H](O)[C@@H]2O)cc1 ? 29.1

Given the compound COc1ccc([C@]2(CO)NC[C@@H](O)[C@@H]2O)cc1 , what is its reported inhibition? 37.8

Give the measured inhibition of OC[C@]1(c2c(F)c(F)c(F)c(F)c2F)NC[C@H](O)[C@H]1O . 0

###

Please provide measured inhibition for the entries that follow.
- TARGET_ENTITY: Lysosomal alpha-glucosidase (Homo sapiens)
- EXPERIMENT_DESCRIPTION: Inhibition of human lysosomal alpha glucosidase assessed as release of p-nitrophenol at 1000 uM using p-nitrophenyl glycoside as substrate by spectrometric assay relative to control
Numbers only here, please. The scale is %.

Look up inhibition with Lysosomal alpha-glucosidase (Homo sapiens) for this compound: COc1ccc([C@@]2(CO)NC[C@H](O)[C@H]2O)cc1OC 27.1

Quick check: inhibition on Lysosomal alpha-glucosidase (Homo sapiens), item OC[C@]1(c2c(F)c(F)c(F)c(F)c2F)NC[C@H](O)[C@H]1O ? 6.9

Identify the measured inhibition of OC[C@]1(c2ccc(F)cc2)NC[C@H](O)[C@H]1O for Lysosomal alpha-glucosidase (Homo sapiens). 8.3

// lookup inhibition | system=Lysosomal alpha-glucosidase (Homo sapiens) | key= COc1ccc([C@]2(CO)NC[C@@H](O)[C@@H]2O)cc1 40.2

Observed inhibition on Lysosomal alpha-glucosidase (Homo sapiens) for OC[C@@]1(c2cccc(F)c2)NC[C@@H](O)[C@@H]1O , please. 10.3

# returns recorded inhibition (system: Lysosomal alpha-glucosidase (Homo sapiens)) for COc1cccc([C@@]2(CO)NC[C@H](O)[C@H]2O)c1 46

Report inhibition for Cc1ccc([C@]2(CO)NC[C@@H](O)[C@@H]2O)cc1 tested on Lysosomal alpha-glucosidase (Homo sapiens). 21.3

Notebook: pull reported inhibition for Lysosomal alpha-glucosidase (Homo sapiens), entry OC[C@@]1(c2c(F)c(F)c(F)c(F)c2F)NC[C@@H](O)[C@@H]1O 18.5

Provide value of inhibition for this record tested with Lysosomal alpha-glucosidase (Homo sapiens): Cc1ccc([C@@]2(CO)NC[C@H](O)[C@H]2O)cc1 45.9

Param readout= inhibition; system= Lysosomal alpha-glucosidase (Homo sapiens); entry= COc1ccc([C@]2(CO)NC[C@@H](O)[C@@H]2O)cc1OC ; returns value. 11.1

# returns recorded inhibition (system: Lysosomal alpha-glucosidase (Homo sapiens)) for OC[C@@]1(c2ccccc2)NC[C@@H](O)[C@@H]1O 35
